Target: GALR3 (Homo sapiens, UniProt O60755)
Construct: purchased Promega (in-house HiBiT-GPCR construct library, NanoBRET)
Sequence (O60755 whole entry): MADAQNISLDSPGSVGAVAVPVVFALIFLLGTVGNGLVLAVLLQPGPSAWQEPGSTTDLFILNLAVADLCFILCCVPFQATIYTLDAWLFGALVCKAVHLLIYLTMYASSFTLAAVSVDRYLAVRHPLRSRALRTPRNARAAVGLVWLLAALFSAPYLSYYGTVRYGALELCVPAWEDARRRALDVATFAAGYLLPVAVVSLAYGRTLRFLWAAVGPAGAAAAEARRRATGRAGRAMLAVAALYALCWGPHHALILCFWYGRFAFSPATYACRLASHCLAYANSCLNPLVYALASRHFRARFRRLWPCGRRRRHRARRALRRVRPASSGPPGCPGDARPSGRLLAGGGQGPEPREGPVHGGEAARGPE
Experiment: NanoBRET screen HiBiT-GALR3 in HEK293
Type: binding
Settings: GALR3; tracer 1μM

compound	NanoBRET Fold Response
CCCn1c(=O)c2[nH]c(-c3ccc(OCC(=O)NCCNC(=O)CCOCCNC(=O)c4ccc(CNC(=O)CCc5ccc6n5[B-](F)(F)[N+]5=C(c7ccc[nH]7)C=CC5=C6)cc4)cc3)nc2n(CCC)c1=O [XAC-3-NB590]	1.04
N#CN=C(NCCCOc1cccc(CN2CCCCC2)c1)NCCNC(=O)CCOCCOCCOCCOCCNC(=O)CCc1ccc2n1[B-](F)(F)[N+]1=C(c3ccc[nH]3)C=CC1=C2 [Aminopotentidine-2-NB590]	1.01
CC(C)N(CC[C@H](c1ccccc1)c1cc(CCNC(=O)CCOCCOCCOCCOCCNC(=O)CCc2ccc3n2[B-](F)(F)[N+]2=C(c4ccc[nH]4)C=CC2=C3)ccc1O)C(C)C [Tolterodine-2-NB590]	0.78

---

Target: LTB4R2 (Homo sapiens)
Construct: purchased Promega (in-house HiBiT-GPCR construct library, NanoBRET)
Sequence (Q9NPC1 whole entry): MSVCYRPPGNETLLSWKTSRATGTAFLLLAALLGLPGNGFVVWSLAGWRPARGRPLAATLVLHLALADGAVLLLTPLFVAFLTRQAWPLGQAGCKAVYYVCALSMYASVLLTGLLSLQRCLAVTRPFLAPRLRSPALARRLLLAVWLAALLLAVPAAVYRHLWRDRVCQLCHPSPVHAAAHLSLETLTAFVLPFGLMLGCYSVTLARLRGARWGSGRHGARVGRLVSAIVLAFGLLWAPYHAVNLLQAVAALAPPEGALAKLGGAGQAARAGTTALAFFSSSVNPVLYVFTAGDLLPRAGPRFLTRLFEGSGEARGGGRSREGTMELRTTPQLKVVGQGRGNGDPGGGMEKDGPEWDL
Assay: NanoBRET screen HiBiT-LTB4R2 in HEK293
Assay type: binding
Settings: LTB4R2; tracer 1μM
# Lookup of reported NanoBRET Fold Response keyed by entry
measurementLabel: NanoBRET Fold Response

compound	readoutNumber
O=C(CCOCCOCCOCCOCCNC(=O)CCc1ccc2n1[B-](F)(F)[N+]1=C(c3ccc[nH]3)C=CC1=C2)NCCCN1CCN(C2=Nc3ccccc3Oc3ccc(Cl)cc32)CC1 [Loxapine-a-2-NB590]	0.95
CC(C)N(CC[C@H](c1ccccc1)c1cc(CCNC(=O)c2ccc(CNC(=O)CCc3ccc4n3[B-](F)(F)[N+]3=C(c5ccc[nH]5)C=CC3=C4)cc2)ccc1O)C(C)C [Tolterodine-BZ-NB590]	0.95
O=C(CCc1ccc2n1[B-](F)(F)[N+]1=C(c3ccc[nH]3)C=CC1=C2)NCc1ccc(C(=O)NCCOCCC(=O)N[C@@H]2CC[C@@]3(O)[C@H]4Cc5ccc(O)c6c5[C@@]3(CCN4CC3CC3)[C@H]2O6)cc1 [Naltrexone-3-NB590]	1.36
Cc1cc2c(s1)Nc1ccccc1N=C2N1CCN(CCCNC(=O)CCOCCOCCOCCOCCNC(=O)CCc2ccc3n2[B-](F)(F)[N+]2=C(c4ccc[nH]4)C=CC2=C3)CC1 [Olanzapine-a-2-NB590]	1.06
COc1ccccc1N1CCN(CCCCN2C(=O)c3ccc(CNC(=O)CCOCCOCCOCCOCCNC(=O)CCc4ccc5n4[B-](F)(F)[N+]4=C(c6ccc[nH]6)C=CC4=C5)cc3C2=O)CC1 [NAN-190-2-NB590]	1.05

---

Target: P2RY6 (Homo sapiens)
Construct: purchased Promega (in-house HiBiT-GPCR construct library, NanoBRET)
Sequence (Q15077 whole entry): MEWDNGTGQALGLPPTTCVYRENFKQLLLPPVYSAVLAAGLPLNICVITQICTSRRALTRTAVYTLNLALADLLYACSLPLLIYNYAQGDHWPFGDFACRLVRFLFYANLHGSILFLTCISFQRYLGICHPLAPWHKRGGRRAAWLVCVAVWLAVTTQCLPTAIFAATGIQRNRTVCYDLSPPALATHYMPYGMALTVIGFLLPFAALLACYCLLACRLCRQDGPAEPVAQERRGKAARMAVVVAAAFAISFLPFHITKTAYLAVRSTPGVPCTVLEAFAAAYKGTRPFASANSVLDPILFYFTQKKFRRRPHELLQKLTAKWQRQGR
Assay: NanoBRET screen HiBiT-P2RY6 in HEK293
Type: binding
Conditions: P2RY6; tracer 0.1μM
# Lookup of reported NanoBRET Fold Response keyed by entry
measurementLabel: NanoBRET Fold Response

smilesInput	readoutNumber
Cc1cc2c(s1)Nc1ccccc1N=C2N1CCN(CCCNC(=O)CCOCCOCCOCCOCCNC(=O)CCc2ccc3n2[B-](F)(F)[N+]2=C(c4ccc[nH]4)C=CC2=C3)CC1	1.31
COc1ccccc1N1CCN(CCCCN2C(=O)c3ccc(CNC(=O)CCOCCNC(=O)c4ccc(CNC(=O)CCc5ccc6n5[B-](F)(F)[N+]5=C(c7ccc[nH]7)C=CC5=C6)cc4)cc3C2=O)CC1	1.10
CCCn1c(=O)c2[nH]c(-c3ccc(OCC(=O)NCCNC(=O)CCOCCNC(=O)c4ccc(CNC(=O)CCc5ccc6n5[B-](F)(F)[N+]5=C(c7ccc[nH]7)C=CC5=C6)cc4)cc3)nc2n(CCC)c1=O	1.06
CC(C)N(CC[C@H](c1ccccc1)c1cc(CCNC(=O)CCOCCOCCOCCOCCNC(=O)CCc2ccc3n2[B-](F)(F)[N+]2=C(c4ccc[nH]4)C=CC2=C3)ccc1O)C(C)C	1.06
CC(C)N(CC[C@H](c1ccccc1)c1cc(CCNC(=O)c2ccc(CNC(=O)CCc3ccc4n3[B-](F)(F)[N+]3=C(c5ccc[nH]5)C=CC3=C4)cc2)ccc1O)C(C)C	1.03
N#CN=C(NCCCOc1cccc(CN2CCCCC2)c1)NCCNC(=O)CCOCCOCCOCCOCCNC(=O)CCc1ccc2n1[B-](F)(F)[N+]1=C(c3ccc[nH]3)C=CC1=C2	1.12

---

Biological target: HRH4 (Homo sapiens, UniProt Q9H3N8)
Construct: purchased Promega (in-house HiBiT-GPCR construct library, NanoBRET)
Sequence (Q9H3N8 whole entry): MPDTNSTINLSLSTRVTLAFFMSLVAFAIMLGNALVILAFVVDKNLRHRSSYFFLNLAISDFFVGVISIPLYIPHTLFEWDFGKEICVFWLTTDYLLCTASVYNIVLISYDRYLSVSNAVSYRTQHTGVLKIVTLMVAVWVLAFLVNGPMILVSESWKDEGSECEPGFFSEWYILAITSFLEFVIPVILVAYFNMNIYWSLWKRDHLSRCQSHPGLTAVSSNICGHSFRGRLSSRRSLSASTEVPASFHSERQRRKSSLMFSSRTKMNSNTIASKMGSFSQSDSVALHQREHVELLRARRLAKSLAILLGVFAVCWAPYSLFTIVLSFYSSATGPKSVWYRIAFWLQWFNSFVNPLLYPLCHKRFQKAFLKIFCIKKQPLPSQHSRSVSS
Assay: NanoBRET screen HiBiT-HRH4 in HEK293
Format: binding
Conditions: HRH4; tracer 1μM
# Lookup of reported NanoBRET Fold Response keyed by entry

compound	NanoBRET Fold Response
Cc1cc2c(s1)Nc1ccccc1N=C2N1CCN(CCCNC(=O)CCOCCOCCOCCOCCNC(=O)CCc2ccc3n2[B-](F)(F)[N+]2=C(c4ccc[nH]4)C=CC2=C3)CC1	0.94
O=C(CCc1ccc2n1[B-](F)(F)[N+]1=C(c3ccc[nH]3)C=CC1=C2)NCCOCCOCCNC(=O)OCCOCCN1CCN(C2=Nc3ccccc3Sc3ccccc32)CC1	0.96
N#CN=C(NCCCOc1cccc(CN2CCCCC2)c1)NCCNC(=O)CCOCCOCCOCCOCCNC(=O)CCc1ccc2n1[B-](F)(F)[N+]1=C(c3ccc[nH]3)C=CC1=C2	1.02
Cc1nc2n(c(=O)c1CCN1CCC(c3noc4cc(F)ccc34)CC1)CCCC2OC(=O)NCCOCCOCCOCCOCCNC(=O)CCc1ccc2n1[B-](F)(F)[N+]1=C(c3ccc[nH]3)C=CC1=C2 (centres unmarked)	1.07
O=C(CCOCCOCCOCCOCCNC(=O)CCc1ccc2n1[B-](F)(F)[N+]1=C(c3ccc[nH]3)C=CC1=C2)NCCCN1CCN(C2=Nc3ccccc3Oc3ccc(Cl)cc32)CC1	1.02

---

Target: CXCR1 (Homo sapiens, UniProt P25024)
Construct: purchased Promega (in-house HiBiT-GPCR construct library, NanoBRET)
Sequence (P25024 whole entry): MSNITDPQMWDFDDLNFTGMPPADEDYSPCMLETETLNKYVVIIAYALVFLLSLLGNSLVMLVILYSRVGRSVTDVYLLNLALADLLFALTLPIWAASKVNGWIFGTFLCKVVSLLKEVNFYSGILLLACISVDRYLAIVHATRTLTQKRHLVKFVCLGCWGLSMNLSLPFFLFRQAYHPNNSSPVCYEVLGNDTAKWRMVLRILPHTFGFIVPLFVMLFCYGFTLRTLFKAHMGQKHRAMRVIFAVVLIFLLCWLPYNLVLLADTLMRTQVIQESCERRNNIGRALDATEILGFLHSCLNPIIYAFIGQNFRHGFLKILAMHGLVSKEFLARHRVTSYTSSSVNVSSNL
Experiment: NanoBRET screen HiBiT-CXCR1 in HEK293
Type: binding
Conditions: CXCR1; tracer 0.1μM
measurementLabel: NanoBRET Fold Response

smilesInput	measurementLabel	readoutNumber
COc1ccccc1N1CCN(CCCCN2C(=O)c3ccc(CNC(=O)CCOCCOCCOCCOCCNC(=O)CCc4ccc5n4[B-](F)(F)[N+]4=C(c6ccc[nH]6)C=CC4=C5)cc3C2=O)CC1	NanoBRET Fold Response	0.97
COc1ccccc1N1CCN(CCCCN2C(=O)c3ccc(CNC(=O)CCOCCNC(=O)c4ccc(CNC(=O)CCc5ccc6n5[B-](F)(F)[N+]5=C(c7ccc[nH]7)C=CC5=C6)cc4)cc3C2=O)CC1	NanoBRET Fold Response	0.93
CC(C)N(CC[C@H](c1ccccc1)c1cc(CCNC(=O)c2ccc(CNC(=O)CCc3ccc4n3[B-](F)(F)[N+]3=C(c5ccc[nH]5)C=CC3=C4)cc2)ccc1O)C(C)C	NanoBRET Fold Response	0.98
CC(C)N(CC[C@H](c1ccccc1)c1cc(CCNC(=O)CCOCCOCCOCCOCCNC(=O)CCc2ccc3n2[B-](F)(F)[N+]2=C(c4ccc[nH]4)C=CC2=C3)ccc1O)C(C)C	NanoBRET Fold Response	1.27
O=C(CCc1ccc2n1[B-](F)(F)[N+]1=C(c3ccc[nH]3)C=CC1=C2)NCCOCCOCCNC(=O)OCCOCCN1CCN(C2=Nc3ccccc3Sc3ccccc32)CC1	NanoBRET Fold Response	0.98

---

Molecular target: HTR4 (Homo sapiens)
Construct: purchased Promega (in-house HiBiT-GPCR construct library, NanoBRET)
Sequence (Q13639 whole entry): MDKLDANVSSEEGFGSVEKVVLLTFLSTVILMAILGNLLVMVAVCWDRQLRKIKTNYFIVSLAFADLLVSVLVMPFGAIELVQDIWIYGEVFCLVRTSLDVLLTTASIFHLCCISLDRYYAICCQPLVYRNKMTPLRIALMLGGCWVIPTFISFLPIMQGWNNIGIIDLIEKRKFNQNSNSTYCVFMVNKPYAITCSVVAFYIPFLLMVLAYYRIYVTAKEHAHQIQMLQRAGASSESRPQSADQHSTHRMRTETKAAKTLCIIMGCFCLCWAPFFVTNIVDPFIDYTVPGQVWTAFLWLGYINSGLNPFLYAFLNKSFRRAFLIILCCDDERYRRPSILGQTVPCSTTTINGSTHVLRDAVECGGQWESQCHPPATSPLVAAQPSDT
Experiment: NanoBRET screen HiBiT-HTR4 in HEK293
Assay type: binding
Conditions: HTR4; tracer 0.1μM
# Lookup of reported NanoBRET Fold Response keyed by entry

molecule	NanoBRET Fold Response
N#CN=C(NCCCOc1cccc(CN2CCCCC2)c1)NCCNC(=O)CCOCCOCCOCCOCCNC(=O)CCc1ccc2n1[B-](F)(F)[N+]1=C(c3ccc[nH]3)C=CC1=C2	0.97
O=C(CCc1ccc2n1[B-](F)(F)[N+]1=C(c3ccc[nH]3)C=CC1=C2)NCc1ccc(C(=O)NCCOCCC(=O)N[C@@H]2CC[C@@]3(O)[C@H]4Cc5ccc(O)c6c5[C@@]3(CCN4CC3CC3)[C@H]2O6)cc1 [Naltrexone-3-NB590]	0.97
Cc1cc2c(s1)Nc1ccccc1N=C2N1CCN(CCCNC(=O)CCOCCOCCOCCOCCNC(=O)CCc2ccc3n2[B-](F)(F)[N+]2=C(c4ccc[nH]4)C=CC2=C3)CC1	1.02
O=C(CCc1ccc2n1[B-](F)(F)[N+]1=C(c3ccc[nH]3)C=CC1=C2)NCCOCCOCCNC(=O)OCCOCCN1CCN(C2=Nc3ccccc3Sc3ccccc32)CC1	0.98
Cc1nc2n(c(=O)c1CCN1CCC(c3noc4cc(F)ccc34)CC1)CCCC2OC(=O)NCCOCCOCCOCCOCCNC(=O)CCc1ccc2n1[B-](F)(F)[N+]1=C(c3ccc[nH]3)C=CC1=C2 (centres unmarked)	1.08
